These entries and their values trace back to patent US20160002357A1.

# test-target: T1, P-cadherin-ECD1-3-Fc protein (human P-cadherin-Fc) (human, UniProt P22223 108-440)
# T1 construct: Construct was expressed with signal peptide and pro-peptide (PACE co-transfected to process the propeptide); not shown: hinge and CH2 and CH3 domains of human IgG1
# T1 sequence (P22223 108-440): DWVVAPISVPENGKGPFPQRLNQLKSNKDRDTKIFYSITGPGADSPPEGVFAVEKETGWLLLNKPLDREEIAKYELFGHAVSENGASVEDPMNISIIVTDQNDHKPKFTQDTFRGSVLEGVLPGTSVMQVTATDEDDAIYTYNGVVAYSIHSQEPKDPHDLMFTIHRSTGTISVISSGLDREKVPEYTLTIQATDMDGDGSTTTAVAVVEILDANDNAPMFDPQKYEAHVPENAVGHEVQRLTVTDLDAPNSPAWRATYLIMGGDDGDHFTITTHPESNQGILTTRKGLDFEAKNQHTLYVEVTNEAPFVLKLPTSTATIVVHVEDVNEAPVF
# assay: phage scFv ELISA, coated P-cadherin-ECD1-3-Fc
value-type: Human P-cadherin-Fc binding (OD450)
Give the value, in units of OD450, as a plain number.

# count of solved cases: 3
binder	Human P-cadherin-Fc binding (OD450)
anti-P-cadherin scFv 153 alanine-mutant L2.3-Ala (scFv, V domains shown, scFv on phage) VH: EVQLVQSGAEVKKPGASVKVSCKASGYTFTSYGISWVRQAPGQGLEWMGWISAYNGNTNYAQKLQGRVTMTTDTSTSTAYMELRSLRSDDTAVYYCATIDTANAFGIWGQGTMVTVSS VL: QSVLTQPPSVSAAPGQKVTISCSGSSSNIGNNYVSWYQQLPGTAPKLLIYDNAKRPSGIPDRFSGSKSGTSATLGITGLQTGDEADYYCGTWDSSLSGVVFGGGTKLTVL	0.98
anti-P-cadherin scFv 153 alanine-mutant L3.1-Ala (scFv, V domains shown, scFv on phage) VH: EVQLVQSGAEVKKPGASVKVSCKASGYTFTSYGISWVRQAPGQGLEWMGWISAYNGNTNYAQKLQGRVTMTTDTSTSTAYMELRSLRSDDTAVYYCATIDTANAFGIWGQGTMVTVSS VL: QSVLTQPPSVSAAPGQKVTISCSGSSSNIGNNYVSWYQQLPGTAPKLLIYDNNKRPSGIPDRFSGSKSGTSATLGITGLQTGDEADYYCATWDSSLSGVVFGGGTKLTVL	2.02
anti-P-cadherin scFv 153 alanine-mutant L3.3-Ala (scFv, V domains shown, scFv on phage) VH: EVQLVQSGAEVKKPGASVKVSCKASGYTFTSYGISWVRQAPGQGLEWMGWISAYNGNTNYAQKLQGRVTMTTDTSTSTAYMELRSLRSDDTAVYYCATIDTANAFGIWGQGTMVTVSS VL: QSVLTQPPSVSAAPGQKVTISCSGSSSNIGNNYVSWYQQLPGTAPKLLIYDNNKRPSGIPDRFSGSKSGTSATLGITGLQTGDEADYYCGTADSSLSGVVFGGGTKLTVL	0.18

QUERY: Entry under review: anti-P-cadherin scFv 153 alanine-mutant L1.6-Ala (scFv, V domains shown, scFv on phage) VH: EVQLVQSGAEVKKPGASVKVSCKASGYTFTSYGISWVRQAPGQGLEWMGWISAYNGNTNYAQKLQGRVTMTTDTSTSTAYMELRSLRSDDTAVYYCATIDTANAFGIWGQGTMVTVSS VL: QSVLTQPPSVSAAPGQKVTISCSGSSSAIGNNYVSWYQQLPGTAPKLLIYDNNKRPSGIPDRFSGSKSGTSATLGITGLQTGDEADYYCGTWDSSLSGVVFGGGTKLTVL . Reported Human P-cadherin-Fc binding (OD450)?
RESULT: 1.16
